Tested on: MAPK phosphorylation
assay explanation: Western MAPK cell-based phosphorylation assay, MIA PaCa-2
condition info: Homo sapiens, 10 μM, 6 hours, EGF stimulation
endpoint label: inhibition at 10 µM

Record excerpt, results attached:
{"compound": "COCCNc1nc(-c2nccn2C)nc2sc(-c3cc(OC)ccc3Cl)c(-c3ccc(OC)cc3)c12 [drawing 421]", "endpoint label": "inhibition at 10 µM", "observed value": "0%"}
{"compound": "COCCNc1nc(-c2nccn2C)nc2sc(-c3cccc(OC)c3Cl)c(-c3ccc(OC)cc3)c12 [drawing 420]", "endpoint label": "inhibition at 10 µM", "observed value": "76 to 100%"}

Qu. Enter reported inhibition at 10 µM observed with MAPK phosphorylation for COCCNc1nc(-c2nccn2C)nc2sc(-c3ccccc3Cl)c(-c3ccc(OC)cc3)c12 [drawing 418]
Ans. 76 to 100%

Qu. Note, next up: COCCNc1nc(-c2nccn2C)nc2sc(-c3cccc(OC)c3)c(-c3ccc(OC)cc3)c12 [drawing 419]
Ans. 76 to 100%

Qu. Repeat for the following compound: COCCNc1nc(-c2nccn2C)nc2sc(-c3cc(OC)ccc3Cl)c(-c3ccccc3)c12 [drawing 426]
Ans. 76 to 100%

Qu. Let us now turn to COCC(C)Nc1nc(-c2nccn2C)nc2sc(-c3cccc(OC)c3)c(-c3cscn3)c12 (centres unmarked) [drawing 416]
Ans. 26 to 50%

Qu. Entry to check: COCC(C)Nc1nc(-c2nccn2C)nc2sc(-c3ccccc3Cl)c(-c3cscn3)c12 (centres unmarked) [drawing 414]
Ans. 76 to 100%

Qu. Another: COCCNc1nc(-c2cn(C)cn2)nc2sc(-c3ccccc3Cl)c(-c3ccc(OC)cc3)c12 [drawing 422]
Ans. 76 to 100%

====

system: UniProtKB P61586
Sequence (P61586 1-190): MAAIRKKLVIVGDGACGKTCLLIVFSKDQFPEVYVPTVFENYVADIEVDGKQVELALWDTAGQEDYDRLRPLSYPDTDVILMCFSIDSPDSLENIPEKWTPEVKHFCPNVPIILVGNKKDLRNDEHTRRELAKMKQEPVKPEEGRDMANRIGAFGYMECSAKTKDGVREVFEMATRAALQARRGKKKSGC
assay explanation: Ras GTP binding domain inhibition assay (Cy3-GTP/Cy5-GTP competition)
condition info: with SOS, read-out: Rho-A + SOS: % inh.
endpoint label: inhibition at 20 µM

Illustrative cases are given below, each with its answer.
{"molecule": "COCCNc1nc(-c2nccn2C)nc2sc(-c3cc(OC)ccc3Cl)c(-c3ccccc3)c12 [drawing 1006]", "inhibition at 20 µM": "51 to 75%"}
{"molecule": "O=C(c1nc(-c2ccccn2)nc(O)c1O)N1CCCC1 [drawing 966]", "inhibition at 20 µM": "51 to 75%"}
{"molecule": "Cn1ccnc1-c1nc(O)c2scc(-c3ccccn3)c2n1 [drawing 988]", "inhibition at 20 µM": "76 to 100%"}

Qu. // query inhibition at 20 µM value for entry COCC1CN(c2nc(-c3nccn3C)nc3sc(-c4cccc(OC)c4F)c(-c4ccc(OC)cc4)c23)C1 [drawing 940]
Ans. 51 to 75%

Qu. Can you check Oc1nc(-c2cn3cccnc3n2)nc2c(-c3ccccn3)csc12 [drawing 983] next?
Ans. 1 to 25%

Qu. Please answer likewise for Cn1ccc(-c2sc3nc(-c4nccn4C)nc(N[C@@H]4CC[C@H](O)C4)c3c2C2=CC=CCC=C2)n1 (racemic)
Ans. 1 to 25%

Qu. Please answer likewise for COCCn1ccnc1-c1nc(O)c2scc(-c3ccc(OCC(C)C)nc3)c2n1 [drawing 1033]
Ans. 76 to 100%

Qu. Moving on to COCCn1cc(Nc2nc(-c3ccccn3)nc(OC)c2OC)cn1 [drawing 928]
Ans. 0%
